System: RXF 393 renal
Assay: NCI-60 one-dose screen, 48 h
Details: 10 µM unless noted
The panel holds about 83,000 compounds, 20% with a hit somewhere; the sample as a whole holds those more often. The source made the active and inactive calls. How the source made its calls: active means growth percent below 10; inactive means the rest.
Classes used: active, inactive

>  <molecule>
O=S(=O)(O)c1ccc2cc(O)ccc2c1

>  <assigned-category>
inactive

$$$$
>  <molecule>
COc1ccc(/C=N/NC(N)=S)cc1

>  <assigned-category>
inactive

$$$$
>  <molecule>
Cc1ccc([N+](=O)[O-])cc1Br

>  <assigned-category>
inactive

$$$$
>  <molecule>
CN(C)CC(CN(C)C)C(O)c1ccccc1 (configuration not stated)

>  <assigned-category>
inactive

$$$$
>  <molecule>
COC(=O)CCOc1ccccc1

>  <assigned-category>
inactive

$$$$
>  <molecule>
CCCCCCCCCCCCCCCCC(=O)O

>  <assigned-category>
inactive

$$$$
>  <molecule>
Cc1c(Cl)c(C)c(Cc2c(C)c(Cl)c(C)c(Cl)c2O)c(O)c1Cl

>  <assigned-category>
active

$$$$
>  <molecule>
Cc1cc(=NO)cc(C)n1O

>  <assigned-category>
inactive

$$$$
>  <molecule>
O=C(OCc1ccccc1)c1ccccc1

>  <assigned-category>
inactive

$$$$
>  <molecule>
COc1ccc(CCN=Cc2ccc(Cl)cc2)cc1OC

>  <assigned-category>
inactive

$$$$
>  <molecule>
OCCS

>  <assigned-category>
inactive

$$$$
>  <molecule>
CCOC(C)=N

>  <assigned-category>
inactive

$$$$
>  <molecule>
Nc1ccc(Cl)c(S(=O)(=O)O)c1

>  <assigned-category>
inactive

$$$$
>  <molecule>
Clc1ccc2sc(-c3ccccc3)nc2c1

>  <assigned-category>
inactive

$$$$
>  <molecule>
O=[N+]([O-])c1cccc(N=Cc2ccccc2)c1

>  <assigned-category>
inactive

$$$$
>  <molecule>
Cn1c(-c2ccccc2)cc(=O)cc1-c1ccccc1

>  <assigned-category>
inactive

$$$$
>  <molecule>
O=C(O)Cc1cc(=O)[nH]n(-c2ccccc2)c1=O

>  <assigned-category>
inactive

$$$$

---

Tested on: A498 renal
Experiment: NCI-60 one-dose screen, 48 h (100 = growth as untreated, 0 = no growth, -100 = all killed)
Conditions: 10 µM unless noted
This is part of a sample that, as a whole, favours compounds with a hit. Of some 83,000 tested, about 20% had one in any assay.
Items are presented alongside their recorded growth.

>  <compound>
CC(=O)Nc1ccc2oc(=O)ccc2c1

>  <growth, %>
89.9

$$$$
>  <compound>
Cc1c(O)nc(N)[nH]c1=O

>  <growth, %>
109

$$$$
>  <compound>
O=c1[nH]c(=S)[nH]n1C(=S)n1[nH]c(=S)[nH]c1=O

>  <growth, %>
109

$$$$
>  <compound>
N=c1sc2ccccc2n1CC(=O)O

>  <growth, %>
102

$$$$
>  <compound>
N=C(N)N1CCc2ccccc2C1

>  <growth, %>
58.3

$$$$
>  <compound>
COc1ccc(CCl)c(C)c1OC

>  <growth, %>
89.5

$$$$
>  <compound>
COC(=O)c1nc(N)nc(C(=O)OC)c1C(=O)c1ccc(F)cc1

>  <growth, %>
120

$$$$
>  <compound>
O=P(O)(O)OC1C(OP(=O)(O)O)C(OP(=O)(O)O)C(OP(=O)(O)O)C(OP(=O)(O)O)C1OP(=O)(O)O.[Cu+2] (configuration not stated)

>  <growth, %>
85.3

$$$$
>  <compound>
CCOCCC(=O)O

>  <growth, %>
80.1

$$$$
>  <compound>
CCOC(=O)C(N)Cc1cc(I)c(O)c(I)c1 (configuration not stated)

>  <growth, %>
103

$$$$
>  <compound>
C/C=C(/C(=O)NC(N)=O)C(C)C

>  <growth, %>
102

$$$$
>  <compound>
Oc1cccnc1CN1CCOCC1

>  <growth, %>
112

$$$$

---

System: KM12 colon
Assay: NCI-60 one-dose screen, 48 h (100 = growth as untreated, 0 = no growth, -100 = all killed)
Conditions: 10 µM unless noted
This is part of a sample that, as a whole, favours compounds with a hit. Of some 83,000 tested, about 20% had one in any assay.
The entries below are paired with their reported growth.

>  <molecule>
N=c1sc2ccccc2n1CC(=O)O

>  <growth [%]>
106

$$$$
>  <molecule>
C=CCN1C(=O)c2ccccc2C1=O

>  <growth [%]>
110

$$$$
>  <molecule>
COCCNC(C)=O

>  <growth [%]>
103

$$$$
>  <molecule>
COC(=O)C(Cc1cn(C(C)=O)c2ccccc12)P(=O)(OC)OC (stereo unspecified)

>  <growth [%]>
99.2

$$$$
>  <molecule>
CC1NC(C)c2ccc3ccccc3c2O1 (stereo unspecified)

>  <growth [%]>
111

$$$$
>  <molecule>
OCc1ccccc1F

>  <growth [%]>
107

$$$$
>  <molecule>
COC(=O)c1cc(C(=O)OC)cc([N+](=O)[O-])c1

>  <growth [%]>
112

$$$$
>  <molecule>
COc1ccc(CCO)cc1

>  <growth [%]>
102

$$$$
>  <molecule>
CCNCc1ccccc1

>  <growth [%]>
99.8

$$$$
>  <molecule>
O=C1Cc2ccccc2C(=O)N1

>  <growth [%]>
102

$$$$
>  <molecule>
Cc1ccc([N+](=O)[O-])cc1Br

>  <growth [%]>
103

$$$$
>  <molecule>
COC(=O)c1nc(=S)[nH]c(C(=O)OC)c1C(=O)c1ccc(OC)cc1

>  <growth [%]>
103

$$$$
>  <molecule>
C#CCOC(=O)C(N)CS (stereo unspecified)

>  <growth [%]>
102

$$$$
>  <molecule>
Cc1cccc(Cl)c1N

>  <growth [%]>
110

$$$$
>  <molecule>
CC(=O)Oc1cc(C)c(OC(C)=O)c(C)c1C

>  <growth [%]>
101

$$$$
>  <molecule>
OCCCc1ccccc1

>  <growth [%]>
109

$$$$
>  <molecule>
Cc1cc(Cl)nc(Nc2ccccc2)n1

>  <growth [%]>
97.8

$$$$
>  <molecule>
CCOC(=O)c1ccc(C(=N)N)cc1

>  <growth [%]>
109

$$$$
>  <molecule>
CCN(CC)C(=S)SCCO

>  <growth [%]>
105

$$$$
>  <molecule>
O=[N+]([O-])c1cccc(N=Cc2ccccc2)c1

>  <growth [%]>
112

$$$$
>  <molecule>
COc1ccc(CCN=Cc2ccc(Cl)cc2)cc1OC

>  <growth [%]>
102

$$$$
>  <molecule>
COc1cc2c(cc1O)C(=O)CCCC2

>  <growth [%]>
89

$$$$
>  <molecule>
CC(O)CCNC(c1ccccc1)C(O)c1ccccc1 (stereo unspecified)

>  <growth [%]>
114

$$$$
>  <molecule>
COc1ccc(S(=O)(=O)c2ccc(F)cc2)cc1

>  <growth [%]>
106

$$$$
>  <molecule>
COc1ccc(/C=C/C(=O)O)cc1OC

>  <growth [%]>
109

$$$$
>  <molecule>
Clc1ccc2sc(-c3ccccc3)nc2c1

>  <growth [%]>
104

$$$$
>  <molecule>
Nc1ccc2ccc(NS(=O)(=O)N3CCCCC3)cc2c1

>  <growth [%]>
15

$$$$
>  <molecule>
Nc1ccccc1SC(CC(=O)c1ccccc1)c1cccc([N+](=O)[O-])c1 (stereo unspecified)

>  <growth [%]>
73.9

$$$$
>  <molecule>
Cc1c(Cl)c(C)c(Cc2c(C)c(Cl)c(C)c(Cl)c2O)c(O)c1Cl

>  <growth [%]>
15.7

$$$$
>  <molecule>
O=c1[nH]c(=O)c2[nH]c(=O)[nH]c2[nH]1

>  <growth [%]>
104

$$$$
>  <molecule>
COC(=O)c1nc(=S)[nH]c(C(=O)OC)c1C(=O)c1ccccc1

>  <growth [%]>
114

$$$$

---

System: U251 CNS
Assay: NCI-60 one-dose screen, 48 h
Settings: 10 µM unless noted
Protocol: Growth inhibition of the U251 human tumor cell line is measured as a screen for anti-cancer activity. Cells are grown in 96 well plates and exposed to the test compound for 48 hours. Compounds are tested at a single concentration, which is 10^-5 M for most compounds. The reported endpoint is percent growth (GI% or GIPRCNT), where numbers from 0 - 100% represent growth inhibition, and numbers from -100% - 0 represent cell death. For example, a value of 40 represents 60% growth inhibition. […]
About 83,000 compounds went through this panel and 20% of them were active in at least one assay; those are over-represented in the sample as a whole. The source made the active and inactive calls. How the source made its calls: active means growth percent below 10; inactive means the rest.
Possible outcomes: true (active), false (inactive)

>  <compound>
CN1C2C=CC(=O)C1C1C(=O)N(c3ccccc3)C(=O)C12 (stereo not drawn)

>  <assigned-category>
false

$$$$
>  <compound>
OCc1ccccc1F

>  <assigned-category>
false

$$$$
>  <compound>
CC1CC(O)CC(C)(C)C1.CC1CC(O)CC(C)(C)C1.CC1CC(O)CC(C)(C)C1.CC1CC(O)CC(C)(C)C1.[Ti] (stereo not drawn)

>  <assigned-category>
false

$$$$
>  <compound>
Nc1ccc(Cl)c(S(=O)(=O)O)c1

>  <assigned-category>
false

$$$$
>  <compound>
N#Cc1c[nH]n2ccnc12

>  <assigned-category>
false

$$$$
>  <compound>
COc1ccc(S(=O)(=O)c2ccc(F)cc2)cc1

>  <assigned-category>
false

$$$$
>  <compound>
Oc1ccc(O)c(-c2ccccc2)c1

>  <assigned-category>
false

$$$$
>  <compound>
Cc1ccc([N+](=O)[O-])cc1Br

>  <assigned-category>
false

$$$$
>  <compound>
O=C(NC(=O)c1ccc(F)c(Cl)c1)NC1CC1

>  <assigned-category>
false

$$$$
>  <compound>
CCOc1ccc(/C=C\C(=O)O)cc1

>  <assigned-category>
false

$$$$
>  <compound>
CC1NC(C)c2ccc3ccccc3c2O1 (stereo not drawn)

>  <assigned-category>
false

$$$$
>  <compound>
O=C(c1ccccc1)C1(Br)CCCCC1

>  <assigned-category>
false

$$$$
>  <compound>
Cc1ccc(S(=O)(=O)n2ccnc2)cc1

>  <assigned-category>
false

$$$$
>  <compound>
COc1ccc(/C=N/Nc2nc3ccccc3s2)cc1

>  <assigned-category>
false

$$$$
>  <compound>
Cc1cc2ccccc2c2cc3ccccc3cc12

>  <assigned-category>
false

$$$$
>  <compound>
CCn1c2ccc(N(C)C)cc2c2cc(N(C)C)ccc21

>  <assigned-category>
false

$$$$
>  <compound>
Cc1cc(NC(=O)NC(=O)c2ccccc2N(C)C)ccc1Oc1ncc(Br)cn1

>  <assigned-category>
true

$$$$
>  <compound>
NNC(=O)Nc1ccccc1

>  <assigned-category>
false

$$$$
>  <compound>
N#CC(=S)Nc1ccc(Cl)c(Cl)c1

>  <assigned-category>
true

$$$$
>  <compound>
COCCNC(C)=O

>  <assigned-category>
false

$$$$
>  <compound>
CC(O)CCNC(c1ccccc1)C(O)c1ccccc1 (stereo not drawn)

>  <assigned-category>
false

$$$$
>  <compound>
CCCCNC(=O)c1ccccc1C

>  <assigned-category>
false

$$$$
>  <compound>
O=C(O)C#Cc1ccc(Cl)cc1

>  <assigned-category>
false

$$$$
>  <compound>
O=C(N=C1C(=O)C2(CCCCC2)C2(N=C(c3ccccc3)OC2=O)C12CCCCC2)c1ccccc1 (stereo not drawn)

>  <assigned-category>
false

$$$$
>  <compound>
CCc1ccccc1-n1[nH]c(C)c(C=N)c1=O

>  <assigned-category>
false

$$$$
>  <compound>
OC1CCCN(Cc2ccccc2)C1 (stereo not drawn)

>  <assigned-category>
false

$$$$
>  <compound>
Nc1nc(-c2ccccn2)cc(-c2cc(-c3ccccn3)nc(N)n2)n1

>  <assigned-category>
false

$$$$
>  <compound>
NNc1ncnc2cccc(Cl)c12

>  <assigned-category>
false

$$$$
>  <compound>
COc1cc2oc3cc(=O)cc4oc(-c5ccccc5)cc(c2c2c1CCC(c1ccccc1)O2)c43 (stereo not drawn)

>  <assigned-category>
false

$$$$
>  <compound>
CCN(CC)C(=S)SCCO

>  <assigned-category>
false

$$$$
>  <compound>
CCCCCCCCCCCCCCCCC(=O)O

>  <assigned-category>
false

$$$$
>  <compound>
O=[N+]([O-])c1ccc(N2CCN=N2)cc1

>  <assigned-category>
false

$$$$
>  <compound>
COC(=O)c1ccccc1Cl

>  <assigned-category>
false

$$$$
